Field: IC50. Provide a value for each of the compounds that follow.
system: Full-length, GST-tagged, human CaMKIIδ (Homo sapiens)
Construct: Full-Length, Glutathione-S-Transferase(GST)-Tagged, Human CaMKIIδ was purchased from Carna Biosciences; purchased Carna Biosciences 02-111
Sequence (Q13557 1-478 isoform Q13557-12): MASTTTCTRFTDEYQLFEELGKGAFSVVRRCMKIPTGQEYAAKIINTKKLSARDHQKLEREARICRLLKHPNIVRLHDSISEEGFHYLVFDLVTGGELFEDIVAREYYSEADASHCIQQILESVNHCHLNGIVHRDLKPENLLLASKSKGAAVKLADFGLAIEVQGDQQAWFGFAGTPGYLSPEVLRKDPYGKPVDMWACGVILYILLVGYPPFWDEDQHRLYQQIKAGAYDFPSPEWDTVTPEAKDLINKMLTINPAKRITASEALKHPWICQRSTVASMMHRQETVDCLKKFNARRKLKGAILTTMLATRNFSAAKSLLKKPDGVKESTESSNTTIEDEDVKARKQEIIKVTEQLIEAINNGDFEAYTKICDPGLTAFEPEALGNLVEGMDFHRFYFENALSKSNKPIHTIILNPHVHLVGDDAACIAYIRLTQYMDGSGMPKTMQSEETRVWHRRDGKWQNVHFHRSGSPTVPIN
procedure-text: CaMKIIδ binding assay (TR-FRET with BODIPY-labeled probe ligand)
details: CaMKIIδ binding assay, results of Table 2

Given the compound COc1cc2c(cc1Nc1ncc(-c3ccc(Cl)c(O[C@@H](C)Cn4cnnn4)c3)cn1)CN(C1COC1)CCC2 [Example 467] , write its reported IC50.
10 to 100 nM

Given the compound C[C@@H](Cn1cnnn1)Oc1cc(-c2cnc(Nc3cn(C4CCN(Cc5ccncc5)CC4)nc3C(F)(F)F)nc2)ccc1Cl [Example 550] , write its reported IC50.
10 to 100 nM

Given the compound COc1cc2c(cc1Nc1ncc(-c3ccc(Cl)c(O[C@@H](C)Cn4cnnn4)c3)cn1)CCN(CC(=O)O)C2 [Example 506] , write its reported IC50.
< 10 nM

Given the compound C[C@@H](Cn1cnnn1)Oc1cc(-c2cnc(Nc3cc(C4CCN(C5COC5)CC4)ccc3OC(F)(F)F)nc2)ccc1Cl [Example 577] , write its reported IC50.
10 to 100 nM

Given the compound C[C@@H](Cn1cnnn1)Oc1cc(-c2cnc(Nc3ccc4c(c3)CCN4C(=O)C3CCN(C)CC3)nc2)ccc1Cl [Example 452] , write its reported IC50.
< 10 nM

Given the compound C[C@@H](Cn1cnnn1)Oc1cc(-c2cnc(Nc3cn(C4CCN(CC(F)(F)F)CC4)nc3C(F)(F)F)nc2)ccc1Cl [Example 486] , write its reported IC50.
10 to 100 nM

Given the compound COc1cc2c(cc1Nc1ncc(-c3ccc(Cl)c(O[C@@H](C)Cn4cnnn4)c3)cn1)N(C(=O)CN1CCOCC1)CC2 [Example 498] , write its reported IC50.
≥ 100 nM

Given the compound COc1cc(C2CCCN(C3COC3)C2)ccc1Nc1ncc(-c2ccc(C#N)c(O[C@@H](C)Cn3cnnn3)c2)cn1 (stereo partly shown) [Example 493] , write its reported IC50.
< 10 nM

Given the compound COc1cc2c(cc1Nc1ncc(-c3ccc(Cl)c(O[C@@H](C)Cn4cnnn4)c3)cn1)CN(C1CCOCC1)CC2 [Example 502] , write its reported IC50.
< 10 nM

Given the compound C[C@@H](Cn1cnnn1)Oc1cc(-c2cnc(Nc3cc(N4CCN(C5CCOCC5)CC4)ncc3OC(F)(F)F)nc2)ccc1C#N [Example 542] , write its reported IC50.
< 10 nM

---

Field: IC50. Provide a value for each of the molecules that follow.
system: Full-length, GST-tagged, human CaMKIIδ (Homo sapiens)
Construct: Full-Length, Glutathione-S-Transferase(GST)-Tagged, Human CaMKIIδ was purchased from Carna Biosciences; purchased Carna Biosciences 02-111
procedure-text: CaMKIIδ binding assay (TR-FRET with BODIPY-labeled probe ligand)
details: Table 2; CaMKIIδ binding assay, activity given as class A/B/C

Given the molecule C[C@@H](Cn1cnnn1)Oc1cc(-c2cnc(Nc3cn(Cc4nc5ccccc5c(=O)[nH]4)nc3C(F)(F)F)nc2)ccc1Cl [Example 741] , write its reported IC50.
0.01 to 0.1 µM

Given the molecule C[C@@H](Cn1cnnn1)Oc1cc(-c2cnc(Nc3cn(CC(C)(C)O)nc3C(F)(F)F)nc2)ccc1Cl [Example 847] , write its reported IC50.
< 0.01 µM

Given the molecule C[C@@H](Cn1cnnn1)Oc1cc(-c2cnc(Nc3cn(CC4(O)CCC4)nc3C(F)(F)F)nc2)ccc1F [Example 858] , write its reported IC50.
0.01 to 0.1 µM

Given the molecule C[C@@H](Cn1cnnn1)Oc1cc(-c2cnc(Nc3cn(CCNC(=O)OC(C)(C)C)nc3C(F)(F)F)nc2)ccc1Cl [Example 845] , write its reported IC50.
0.01 to 0.1 µM

Given the molecule CCOC(=O)c1c(Nc2ncc(-c3ccc(Cl)c(O[C@@H](C)Cn4cnnn4)c3)cn2)cnn1CC [Example 872] , write its reported IC50.
< 0.01 µM

Given the molecule C[C@@H](Cn1cccn1)Oc1cc(-c2cnc(Nc3cn([C@H]4CC[C@@H](N5CCOCC5)CC4)nc3OCC(F)(F)F)nc2)ccc1C#N [Example 797] , write its reported IC50.
0.01 to 0.1 µM

Given the molecule C[C@@H](Cn1cnnn1)Oc1cc(-c2cnc(Nc3cn([C@H]4CC[C@H](N5CCC5)CC4)nc3C(F)(F)F)nc2)ccc1Cl [Example 779] , write its reported IC50.
< 0.01 µM

Given the molecule COc1cccc(-n2cc(Nc3ncc(-c4ccc(Cl)c(O[C@@H](C)Cn5cnnn5)c4)cn3)c(OCC(F)(F)F)n2)n1 [Example 878] , write its reported IC50.
≥ 0.1 µM

Given the molecule C[C@@H](Cn1cnnn1)Oc1cc(-c2cnc(Nc3cn([C@@H]4C[C@H]5CC[C@@H](C4)N5C)nc3C(F)(F)F)nc2)ccc1Cl [Example 758] , write its reported IC50.
< 0.01 µM

Given the molecule C[C@@H](Cn1cnnn1)Oc1cc(-c2cnc(Nc3cn(C4CCNCC4)nc3OCCF)nc2)ccc1Cl [Example 824] , write its reported IC50.
< 0.01 µM

Given the molecule C[C@@H](Cn1cnnn1)Oc1cc(-c2cnc(Nc3cn(C4CCNCC4)nc3C(F)F)nc2)ccc1Cl [Example 771] , write its reported IC50.
< 0.01 µM

Given the molecule C[C@@H](Cn1cnnn1)Oc1cc(-c2cnc(Nc3ccnn3C)nc2)ccc1Cl [Example 735] , write its reported IC50.
0.01 to 0.1 µM

Given the molecule C[C@@H](Cn1cnnn1)Oc1cc(-c2cnc(Nc3cn(C4CCN(C5CCOCC5)CC4)nc3OCC(F)(F)F)nc2)ccc1C#N [Example 790] , write its reported IC50.
< 0.01 µM

Given the molecule C[C@@H](Cn1cnnn1)Oc1cc(-c2cnc(Nc3cn([C@H]4C[C@@H](NC5CCOCC5)C4)nc3OCC(F)F)nc2)ccc1Cl [Example 850] , write its reported IC50.
< 0.01 µM

Given the molecule C[C@@H](Cn1cnnn1)Oc1cc(-c2cnc(Nc3cn(CC4CNC(=O)O4)nc3C(F)(F)F)nc2)ccc1Cl (stereo partly shown) [Example 738] , write its reported IC50.
< 0.01 µM

Given the molecule C[C@@H](Cn1cnnn1)Oc1cc(-c2cnc(Nc3cn([C@H]4CC[C@@H](N5CC(O)(C(F)(F)F)C5)CC4)nc3C(F)(F)F)nc2)ccc1Cl [Example 856] , write its reported IC50.
0.01 to 0.1 µM

---

system: Full-length, GST-tagged, human CaMKIIδ (Homo sapiens)
Construct: Full-Length, Glutathione-S-Transferase(GST)-Tagged, Human CaMKIIδ was purchased from Carna Biosciences; purchased Carna Biosciences 02-111
procedure-text: CaMKIIδ binding assay (TR-FRET with BODIPY-labeled probe ligand)
details: Table 2; activity class for CaMKIIδ
pIC50: −log10 of the molar value.
Field: pIC50. Provide a value for each of the compounds that follow.

Given the compound COc1cc(N2CCNCC2)cnc1Nc1ncc(-c2ccc(Cl)c(O[C@@H](C)Cn3cnnn3)c2)cn1 , write its reported pIC50.
7.00 to 8.00

Given the compound C[C@@H](Cn1cnnn1)Oc1cc(-c2cnc(Nc3cn(CC4CN(C5COC5)C4)nc3C(F)(F)F)nc2)ccc1Cl , write its reported pIC50.
> 8.00

Given the compound COc1ccc(N2CCN(CC(N)=O)CC2)cc1Nc1ncc(-c2ccc(Cl)c(O[C@@H](C)Cn3cnnn3)c2)cn1 , write its reported pIC50.
> 8.00

Given the compound Cc1cc(Nc2ncc(-c3ccc(Cl)c(O[C@@H](C)Cn4cnnn4)c3)cn2)n(CC(F)(F)F)n1 , write its reported pIC50.
7.00 to 8.00

Given the compound CCn1cc(Nc2ncc(-c3ccc(Cl)c(O[C@@H](C)Cn4cnnn4)c3)cn2)c(N2CCOCC2)n1 , write its reported pIC50.
≤ 7.00

Given the compound C[C@@H](Cn1cnnn1)Oc1cc(-c2cnc(Nc3c[nH]nc3C(F)(F)F)nc2)ccc1Cl , write its reported pIC50.
7.00 to 8.00

Given the compound C[C@@H](Cn1cnnn1)Oc1cc(-c2cnc(Nc3cn(CC4CCCN(C)C4)nc3C(F)(F)F)nc2)ccc1Cl (some centres unmarked) , write its reported pIC50.
7.00 to 8.00

Given the compound C[C@@H](Cn1cnnn1)Oc1cc(-c2cnc(Nc3cn(CC4CN(C(=O)OC(C)(C)C)C4)nc3C(F)(F)F)nc2)ccc1Cl , write its reported pIC50.
≤ 7.00

Given the compound C[C@@H](Cn1cnnn1)Oc1cc(-c2cnc(Nc3cn(Cc4cccnc4)nc3C(F)(F)F)nc2)ccc1Cl , write its reported pIC50.
7.00 to 8.00

Given the compound CCn1cc(Nc2ncc(-c3ccc(Cl)c(O[C@@H](C)Cn4cnnn4)c3)cn2)c(OCC(F)(F)F)n1 , write its reported pIC50.
> 8.00

Given the compound CCn1cc(Nc2ncc(-c3ccc(Cl)c(O[C@@H](C)Cn4cnnn4)c3)cn2)c(-c2ccccc2)n1 , write its reported pIC50.
7.00 to 8.00

Given the compound C[C@@H](Cn1cnnn1)Oc1cc(-c2cnc(Nc3cc(N4CCN(C5CCOCC5)CC4)ncc3OC(F)(F)F)nc2)ccc1Cl , write its reported pIC50.
> 8.00

Given the compound COCCn1nc(C)cc1Nc1ncc(-c2ccc(Cl)c(O[C@@H](C)Cn3cnnn3)c2)cn1 , write its reported pIC50.
≤ 7.00

Given the compound C[C@@H](Cn1cnnn1)Oc1cc(-c2cnc(Nc3cn(C4CCC(C(=O)O)CC4)nc3C(F)(F)F)nc2)ccc1Cl (some centres unmarked) , write its reported pIC50.
7.00 to 8.00

Given the compound COc1cc2c(cc1Nc1ncc(-c3ccc(C#N)c(O[C@@H](C)Cn4cnnn4)c3)cn1)N(C(=O)C(F)(F)F)CCC2 , write its reported pIC50.
7.00 to 8.00

Given the compound C[C@@H](Cn1cnnn1)Oc1cc(-c2cnc(Nc3cn(C4CCN(C5COC5)C4)nc3C(F)(F)F)nc2)ccc1Cl (some centres unmarked) , write its reported pIC50.
7.00 to 8.00

Given the compound COc1nc(N2CCN(C3CCOCC3)CC2)ccc1Nc1ncc(-c2ccc(Cl)c(O[C@@H](C)Cn3cnnn3)c2)cn1 , write its reported pIC50.
> 8.00

Given the compound C[C@@H](Cn1cnnn1)Oc1cc(-c2cnc(Nc3cn(CC(=O)Nc4ccccc4)nc3C(F)(F)F)nc2)ccc1Cl , write its reported pIC50.
7.00 to 8.00

Given the compound CC(C)c1nn(C2CCN(C3CCOCC3)CC2)cc1Nc1ncc(-c2ccc(Cl)c(O[C@@H](C)Cn3cnnn3)c2)cn1 , write its reported pIC50.
> 8.00

Given the compound C[C@@H](Cn1cnnn1)Oc1cc(-c2cnc(Nc3cn(C4CN(C(=O)OC(C)(C)C)C4)nc3C(F)(F)F)nc2)ccc1Cl , write its reported pIC50.
7.00 to 8.00
